target of assay: UniProtKB P27338
The compounds listed here are annotated with their pKi.
Lab note — pKi values are minus log10 of concentrations in M.

[[record]]
compound = "O=C(Nc1ccc(Br)cc1)c1ccc2[nH]ccc2c1 [Compound 8b]"
quantity_kind = "pKi"
data_value = 8.18


Now look at this entry.
I would be grateful if you could share the reported pKi for O=C(Nc1ccc(I)cc1)c1ccc2[nH]ccc2c1 [Compound 8a, N-(4-iodophenyl)-1H-indole-5-carboxamide] .
7.99

----------
target of assay: Human recombinant MAO-B (hMAO-B) (Homo sapiens, UniProt P27338)
Sequence (P27338 whole entry): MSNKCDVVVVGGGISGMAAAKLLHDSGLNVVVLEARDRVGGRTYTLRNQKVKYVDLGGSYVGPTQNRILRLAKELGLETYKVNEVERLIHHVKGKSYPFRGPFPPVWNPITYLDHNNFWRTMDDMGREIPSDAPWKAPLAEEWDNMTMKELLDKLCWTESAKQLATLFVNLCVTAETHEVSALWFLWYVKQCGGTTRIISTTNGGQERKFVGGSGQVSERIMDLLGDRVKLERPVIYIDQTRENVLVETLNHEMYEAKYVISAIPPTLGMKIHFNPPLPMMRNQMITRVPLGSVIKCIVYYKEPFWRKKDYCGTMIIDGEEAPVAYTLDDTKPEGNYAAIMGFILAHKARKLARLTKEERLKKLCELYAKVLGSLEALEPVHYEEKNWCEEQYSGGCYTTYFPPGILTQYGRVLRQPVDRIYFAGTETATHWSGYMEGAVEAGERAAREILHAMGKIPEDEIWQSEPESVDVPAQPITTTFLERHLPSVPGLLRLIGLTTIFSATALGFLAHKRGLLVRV
assay method text: MAO-B inhibition assay (Amplex Red fluorescence, benzylamine substrate)
condition notes: five doses 10, 1, 0.1, 0.01, 0.001 μM, triplicate
quantity kind: pIC50
Here pIC50 is given on a logarithmic scale as minus log10 of the concentration in mol/L.

Name the recorded pIC50 for O=C(Nc1ccc(I)cc1)c1ccc2[nH]ccc2c1 [Compound 8a, N-(4-iodophenyl)-1H-indole-5-carboxamide] .
7.56
